property: melting point

As a guide, the following entries are already answered.
> print(dat)
                                   molecule    assay.value
1  CC(C)NCC(O)COc1ccc(CCOCC2CCC2)cc1 (stereo not given)    62 to 63 °C
2  CCCOc1cc(NC(=O)C[C@H]2O[C@H](c3cccc(OC)c3OC)c3cc(Cl)ccc3N(CC(C)(C)COC(C)=O)C2=O)cc2cc(C(=O)OC)oc12  146 to 147 °C
3     CC1C(=O)NCC1C(N)=O (stereo not given)  169 to 171 °C
4  O=C1NC(=O)C(c2c[nH]c3ccccc23)N1 (stereo not given)  229 to 230 °C
5  Cc1ccc2c(c1)C(C=O)c1ccccc1C2C=O (stereo not given)  125 to 126 °C

Task item: Suppose we examine the molecule O=C(CCSC(=O)c1ccccc1)N[C@@H](Cc1ccccc1)C(=O)O ; what melting point value has been reported?
Reply: 123 to 124 °C

Task item: Suppose we examine the molecule CC(C)(C)c1cc(CCC(=O)NCCNc2cccc(Cl)c2C#N)cc(C(C)(C)C)c1O ; what melting point value has been reported?
Reply: 164 to 167 °C

Task item: Suppose we examine the molecule CCOC(OCC)c1coc2cc3c(cc2c1=O)OCO3 ; what melting point value has been reported?
Reply: 123 to 125 °C

Task item: Suppose we examine the molecule O=P(c1ccccc1)(c1ccccc1)c1ccc(P(=O)(c2ccccc2)c2ccccc2)nn1 ; what melting point value has been reported?
Reply: 248 to 252 °C

Task item: Suppose we examine the molecule COc1cc2c(cc1Nc1ncc(Cl)c(Nc3c(OC)ccc4c3CN(S(C)(=O)=O)CC(=O)N4)n1)CCN(CC(=O)N(C)C)CC2 ; what melting point value has been reported?
Reply: 118 to 121 °C

Task item: Suppose we examine the molecule CC1SC(=O)NN=C1c1ccc2c(c1)C(=NNc1ccc(Cl)cc1)C(=O)N2 (stereo not given) ; what melting point value has been reported?
Reply: 283 °C

Task item: Suppose we examine the molecule CCOC(=O)c1c(Cl)nc2cc(Cl)c(OC)cc2c1CCl ; what melting point value has been reported?
Reply: > 250 °C

Task item: Suppose we examine the molecule c1csc(-c2noc(COc3ccc(CCCCn4ccnc4)cc3)n2)c1 ; what melting point value has been reported?
Reply: 94 to 95 °C

Task item: Suppose we examine the molecule Cc1ccc2c(cc(C(=O)O)n2CCCC#N)c1C ; what melting point value has been reported?
Reply: 175 °C

Task item: Suppose we examine the molecule CC(C)(C)c1ccc(NC(Nc2ccc(C(C)(C)C)cc2)Nc2ccc(C(C)(C)C)cc2)cc1 ; what melting point value has been reported?
Reply: 157 to 158 °C

Task item: Suppose we examine the molecule Cc1ccc(C(OC2CCN(CC(=O)O)CC2)c2ccccc2)cc1 (stereo not given) ; what melting point value has been reported?
Reply: 73.5 to 75 °C

Task item: Suppose we examine the molecule N#CC1(C#N)C2CCC(C2)C1(Cl)Cl (stereo not given) ; what melting point value has been reported?
Reply: 148 °C

Task item: Suppose we examine the molecule CN(CC1CC(c2ccc(F)cc2)=NO1)C1CCC(c2ccc3[nH]c(=O)oc3c2)CC1 (stereo not given) ; what melting point value has been reported?
Reply: 109 to 114 °C

Task item: Suppose we examine the molecule CCOC(=O)C1=C(CSC(C)=O)NC(C)=C(C#N)C1c1cccc([N+](=O)[O-])c1 (stereo not given) ; what melting point value has been reported?
Reply: 155 to 157 °C

Task item: Suppose we examine the molecule CCCCCCOc1ccc2c(COC)c(OCCCCCC)ccc2c1COC ; what melting point value has been reported?
Reply: 103 to 104 °C

----------
melting point: recorded values

As a guide, the following entries are already answered.
> print(dat)
                                   compound    assay.value
1  CCN1CCCC1CNC(=O)c1cc(OCC(F)(F)F)ccc1OCC(F)(F)F (stereo not given)    78 to 80 °C
2       COCc1nc2c([N+](=O)[O-])cc(Br)cc2n1C  145 to 147 °C

Task item: Suppose we examine the compound CC(C)(C)OC(=O)NCC1(Cc2noc(=S)[nH]2)CCCCC1 ; what melting point value has been reported?
Reply: 160 to 161 °C

Task item: Suppose we examine the compound CCC(C)NCc1nc(-c2ccc(OC)c(OC)c2)c2cc(OC)c(OC)cc2n1 (stereo not given) ; what melting point value has been reported?
Reply: 118 to 120 °C

Task item: Suppose we examine the compound CC(Cc1ccc(O)cc1)NCC(O)c1cc2ccccc2o1 (stereo not given) ; what melting point value has been reported?
Reply: 135 to 138 °C

----------
property: melting point

As a guide, the following entries are already answered.
> print(dat)
                                   molecule       property    assay.value
1             CCOC(=O)c1oc2ccccc2c1N=CN(C)C  melting point    89 to 90 °C
2  CC(C)(C)OC(=O)NC(CC(=O)Nc1n[nH]c(=S)s1)c1ccccc1 (stereo unspecified)  melting point  248 to 249 °C
3         NS(=O)(=O)c1cc2cc3c(cc2[nH]1)OCO3  melting point  234 to 237 °C
4  CC(C)c1ccc(CCCN(C)[C@H]2CC[C@H](c3ccc4[nH]c(=O)oc4c3)CC2)cc1  melting point  179 to 181 °C
5  O=C(O)C1=Cc2cc(Cl)c(OCC(F)(F)F)cc2OC1C(F)(F)F (stereo unspecified)  melting point  174 to 176 °C
6  O=C(Nc1ccc(-n2nc(C(F)(F)F)cc2C(F)(F)F)cc1)c1ccc(O)cc1  melting point       > 245 °C

Task item: Suppose we examine the molecule COc1ccc2c(c1)Cc1ccccc1C(=O)C2 ; what melting point value has been reported?
Reply: 105 to 106 °C

Task item: Suppose we examine the molecule O=C(O)c1ccc(-c2ccc(Cl)cc2)nc1 ; what melting point value has been reported?
Reply: > 260 °C

Task item: Suppose we examine the molecule Cc1ccc(C(O)(c2ccccc2)c2ccncc2)cc1 (stereo unspecified) ; what melting point value has been reported?
Reply: 192 to 195 °C

Task item: Suppose we examine the molecule CC(C)(C)C(=O)C(Br)C(Br)C(=O)C(C)(C)C (stereo unspecified) ; what melting point value has been reported?
Reply: 107 to 109 °C

Task item: Suppose we examine the molecule CC(C)(C)c1cc(N)cc(C(C)(C)C)c1O ; what melting point value has been reported?
Reply: 105 to 108 °C

----------
property: melting point

> print(dat)
                               molecule       property   assay.value
1  CCOC(=O)c1c(COC(C)=O)cccc1S(N)(=O)=O  melting point  98 to 100 °C

Task item: Suppose we examine the molecule C/C(Cn1oc(=O)[nH]c1=O)=C(\C)c1cccc(OCc2nc(-c3ccc(C(F)(F)F)cc3)oc2C)c1 ; what melting point value has been reported?
Reply: 144 to 145 °C

Task item: Suppose we examine the molecule COC(=O)C(C)(C)NS(=O)(=O)c1ccc2c(Cl)cnc(Cl)c2c1 ; what melting point value has been reported?
Reply: 160 to 161 °C

Task item: Suppose we examine the molecule CNS(=O)(=O)c1cc(S(=O)(=O)Cl)c(Cl)cc1N ; what melting point value has been reported?
Reply: 153 to 155 °C

Task item: Suppose we examine the molecule CC(C)(C)N1CC(=O)Nc2cccc(Cl)c21 ; what melting point value has been reported?
Reply: 198 °C

Task item: Suppose we examine the molecule O=C(NCC1CCN(CC2(C(=O)O)CC2)CC1)N1C(=O)C2(CCCC2)c2ccccc21 ; what melting point value has been reported?
Reply: 186 °C

Task item: Suppose we examine the molecule O=C(C=Cc1cccs1)C=Cc1cccs1 ; what melting point value has been reported?
Reply: 115 to 117 °C

Task item: Suppose we examine the molecule CCOC(=O)C(=CNc1cccc(C2=NC(C)(C)Cc3cc(OC)c4c(c32)CC(C)(C)O4)c1)C(=O)OCC ; what melting point value has been reported?
Reply: 115 to 117 °C

Task item: Suppose we examine the molecule CC(=O)OCCN1C(=O)N2CCOC2(c2ccccc2)c2cc(Cl)ccc21 (stereo not given) ; what melting point value has been reported?
Reply: 121 to 123 °C

Task item: Suppose we examine the molecule CC1OC(=S)Nc2ccc(-c3cccc(F)c3)cc21 (stereo not given) ; what melting point value has been reported?
Reply: 173 to 174 °C

----------
property: melting point

> print(dat)
                                   compound       property    assay.value
1  O=C(NNC(=O)c1ccc([N+](=O)[O-])cc1)c1ccc([N+](=O)[O-])cc1  melting point         294 °C
2   Fc1ccc2c(-c3cccc(OC[C@@H]4CO4)c3)noc2c1  melting point    83 to 84 °C
3  CCCn1nc(C(=O)O)cc1CC(C)(C)NC(=O)OC(C)(C)C  melting point  151 to 152 °C

Task item: Suppose we examine the compound COc1cc(-c2cc(C(F)(F)F)nn2-c2ccc(S(C)(=O)=O)c(F)c2)ccc1-c1cscn1 ; what melting point value has been reported?
Reply: 155 to 157 °C

Task item: Suppose we examine the compound CC(C)(C)c1ccc(C=NOCCCOc2ccc(CC(=O)O)cc2)cc1 ; what melting point value has been reported?
Reply: 56.2 to 59.2 °C

Task item: Suppose we examine the compound O=C1CCCN1c1cccc(C(F)(F)F)c1 ; what melting point value has been reported?
Reply: 65 to 66 °C

Task item: Suppose we examine the compound COC(=O)[C@@H]1CN(CCCCN2C(=O)c3cc(Cl)ccc3S2(=O)=O)CC[C@H]1n1c(=O)[nH]c2ccccc21 (relative stereo) ; what melting point value has been reported?
Reply: 170 to 176 °C

Task item: Suppose we examine the compound OC(CNCCc1cc(Br)sc1Br)c1ccccc1 (stereo not given) ; what melting point value has been reported?
Reply: 94 °C

Task item: Suppose we examine the compound Clc1cc(NC2CCCC2)nc(NC2CCCC2)n1 ; what melting point value has been reported?
Reply: 94 to 98 °C

Task item: Suppose we examine the compound CSC1CC(=O)N1CC(=O)O (single isomer, unassigned; (+)) ; what melting point value has been reported?
Reply: 117 to 118 °C

Task item: Suppose we examine the compound Cc1cnc2c(c1)COP(=S)(OC(C)C)O2 (stereo not given) ; what melting point value has been reported?
Reply: 96 to 98 °C

Task item: Suppose we examine the compound COc1ccc(C(O)(Cc2ccccc2)c2ccccc2)cc1 (stereo not given) ; what melting point value has been reported?
Reply: 111 to 112 °C
